Recorded values, source patent US11498896B2.

- EXPERIMENTAL TARGET: human D2R/β-arrestin (Homo sapiens (Human), UniProt P14416)
- Sequence (P14416 whole entry): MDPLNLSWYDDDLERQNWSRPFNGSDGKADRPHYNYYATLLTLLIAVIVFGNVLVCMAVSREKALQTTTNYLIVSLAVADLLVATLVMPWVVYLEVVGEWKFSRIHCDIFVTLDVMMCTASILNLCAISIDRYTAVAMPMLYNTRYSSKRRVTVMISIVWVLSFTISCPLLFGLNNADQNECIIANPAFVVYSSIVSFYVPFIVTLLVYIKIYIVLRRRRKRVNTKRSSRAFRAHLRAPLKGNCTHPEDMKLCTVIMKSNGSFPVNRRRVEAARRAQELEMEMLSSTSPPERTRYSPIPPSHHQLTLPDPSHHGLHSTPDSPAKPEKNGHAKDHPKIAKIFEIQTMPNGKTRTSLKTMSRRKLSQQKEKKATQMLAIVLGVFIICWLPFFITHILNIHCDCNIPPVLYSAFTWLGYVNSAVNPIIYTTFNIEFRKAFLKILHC
- ASSAY NAME: cell-based
- CONDITION INFO: β-arrestin Antagonist, CHO-K1 cells expressing human D2R/β-arrestin; antagonist mode, quinpirole 130 nM
pIC50: −log10 of the molar value.
TEST READOUT: pIC50

1. CC1(NC(=O)C2CC2)CCN(C[C@H]2COc3ccccc3O2)CC1 ... > 7.00
2. CC1(Oc2ccc(Cl)cc2)CCN(CCC(C)(O)c2ccccc2C(F)(F)F)CC1 (centres unmarked) ... 4.52 to 5.00
3. CC1CC(C)(Oc2ccccc2)CC(C)N1CCOc1ccccc1C(F)(F)F (centres unmarked) ... 5.00 to 6.00
4. CC1(Oc2ccc(Cl)cc2)CCCN(CCOc2ccccc2F)C1 (centres unmarked) ... 6.00 to 7.00
5. CNC(=O)C1(C)CCN(CCOc2ccccc2C(F)(F)F)CC1 ... > 7.00
